Endpoint summary: IC50, system: BTK (Homo sapiens, UniProt Q06187), multiple sources combined.
Sequence (Q06187 whole entry): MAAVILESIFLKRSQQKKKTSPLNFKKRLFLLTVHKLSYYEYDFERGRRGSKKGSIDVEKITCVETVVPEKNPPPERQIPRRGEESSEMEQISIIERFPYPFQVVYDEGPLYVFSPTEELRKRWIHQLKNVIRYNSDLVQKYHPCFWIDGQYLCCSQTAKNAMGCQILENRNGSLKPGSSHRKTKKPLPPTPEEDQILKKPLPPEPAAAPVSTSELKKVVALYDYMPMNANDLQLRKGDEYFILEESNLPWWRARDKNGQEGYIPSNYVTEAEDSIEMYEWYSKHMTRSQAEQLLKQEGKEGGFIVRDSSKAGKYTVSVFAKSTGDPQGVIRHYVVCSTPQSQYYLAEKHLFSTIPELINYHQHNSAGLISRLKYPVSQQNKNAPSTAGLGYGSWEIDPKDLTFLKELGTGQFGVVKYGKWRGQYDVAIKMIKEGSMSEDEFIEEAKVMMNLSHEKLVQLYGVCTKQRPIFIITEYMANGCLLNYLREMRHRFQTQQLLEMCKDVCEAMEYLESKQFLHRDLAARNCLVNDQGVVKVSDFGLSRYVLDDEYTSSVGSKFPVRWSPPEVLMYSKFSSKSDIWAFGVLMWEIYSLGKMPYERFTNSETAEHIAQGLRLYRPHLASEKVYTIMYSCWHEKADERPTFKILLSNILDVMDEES
PARAMETER_MEASURED: IC50

>>> result_value("C=CC(=O)N1CCN(c2ccc(C(N)=O)c(-c3ccc(Oc4ccccc4)cc3)c2)CC1")
"< 500 nM"
>>> result_value("O=C(CNc1ccccc1S(=O)(=O)N1CCCCC1)NC1CCCCN(c2ncnc3[nH]ncc23)C1 (stereo not shown)")
"< 100 nM"
>>> result_value("Cc1cc(-c2ccnc(Nc3cnn([C@H]4CC[C@@H](C(=O)O)CC4)c3)n2)ccc1CNC(=O)c1cnc(C(C)(C)C)s1")
"< 10 nM"
>>> result_value("Cn1cc(-c2cccc(-n3ncc4cc(C(C)(C)C)ccc4c3=O)c2CO)nc1C(N)=O")
"50 nM"

###

Endpoint summary: pIC50, system: UniProtKB Q06187, multiple sources combined.
pIC50: −log10 of the molar value.
PARAMETER_MEASURED: pIC50

>>> result_value("C=CC(=O)Nc1cc(-n2c(=O)ccc3cnc4ccc(-c5ccc6c(c5)OCCO6)cc4c32)ccc1C")
7.80
>>> result_value("C=CC(=O)N1CCC[C@@H]1Cn1nc(-c2ccc(Oc3ccccc3)cc2)c2cncnc21")
"> 7.00"
>>> result_value("C=CC(=O)N1CC2CC1C(n1nc(-c3ccc(C(=O)Nc4cc(C)ccn4)cc3)c3c(N)ncnc31)C2 (stereo not shown)")
8.62
>>> result_value("C=CC(=O)N1CCCC(c2c(F)c(F)c(C(N)=O)c3[nH]c(C)c(F)c23)C1 (stereo not shown)")
"> 8.00"
>>> result_value("Cc1c(O)cccc1C(=O)c1c[nH]c2ncc(-c3ccccc3)cc12")
"≥ 5.00"
>>> result_value("C#Cc1ccnc2[nH]cc(C(=O)c3c(F)ccc(NS(=O)(=O)c4ccc(C(F)(F)F)cc4)c3F)c12")
"< 5.00"
>>> result_value("O=C(CNc1cc(C(F)(F)F)cc(C(F)(F)F)c1)N1CCC[C@H](Nc2ncnc3[nH]ccc23)C1")
"5.00 to 6.00"
>>> result_value("Nc1ncnc2c1c(-c1cc(O)cc(F)c1)cn2C1Cc2ccccc2C1")
8.38
>>> result_value("CC1CC(N(C)c2ncnc3[nH]ncc23)CN(C(=O)CNc2cc(Cl)cc(Cl)c2)C1 (stereo not shown)")
"> 7.00"
>>> result_value("CC#CC(=O)N1CC2CCC2(c2nc(-c3ccc(C(=O)Nc4ccccn4)cc3)c3c(N)nccn23)C1 (stereo not shown)")
7.17
>>> result_value("COc1cc(OC)cc(C(=O)c2c[nH]c3ncc(-c4cccc(NS(C)(=O)=O)c4)cc23)c1")
"≥ 5.00"
>>> result_value("CC1C(Nc2ncnc(N)c2F)CCCN1C(=O)CNc1cc(Cl)cc(Cl)c1 (stereo not shown)")
"> 7.00"
>>> result_value("C=CC(=O)N1CCC[C@@H](Nc2nc(Nc3cc(C)ns3)nn3cccc23)C1")
"≥ 7.30"
>>> result_value("C=CC(=O)N1CCCC(n2cc(C(N)=O)c(-c3ccc(Oc4ccccc4)cc3)n2)C1 (stereo not shown)")
"> 6.30"
>>> result_value("CN(C)C/C=C/C(=O)N1CC2CC1C(n1nc(-c3ccc(C(=O)Nc4ccccn4)cc3)c3c(N)ncnc31)C2 (stereo not shown)")
7.44
>>> result_value("Cn1cc(-c2ccnc(-n3ncc4cc(C(C)(C)C)cc(F)c4c3=O)c2CO)cc1C(N)=O")
7.70
>>> result_value("C=CC(=O)N1CC2CC1C(n1nc(-c3ccc(NC(=O)Nc4ccccc4)cc3)c3c(N)ncnc31)C2 (stereo not shown)")
7.82
>>> result_value("CC(NC(=O)c1nc2c(s1)CCCC2)c1ccc(-c2ncnc3[nH]ccc23)cc1C(F)(F)F (stereo not shown)")
"7.00 to 8.00"
>>> result_value("CN(C)C/C=C/C(=O)N1CCC(Cn2c(=O)n(-c3ccc(Oc4ccccc4)cc3)c3c(N)ncnc32)CC1")
"> 7.00"
>>> result_value("C=CC(=O)N1CCC=C(c2ccc(C(N)=O)c3[nH]c4c(c23)CC2(CCCO2)CC4)C1 (stereo not shown)")
"≤ 7.00"
>>> result_value("Cc1cc(-c2nc(-c3cnn(C)c3)cn3nccc23)ccc1CNC(=O)c1noc(C(C)(C)C)n1")
"> 9.00"
>>> result_value("CC1C(Nc2ncnc3[nH]ncc23)CCCN1C(=O)CNc1ccccc1S(=O)(=O)N1CCCC1 (stereo not shown)")
"> 7.00"
>>> result_value("C=CC(=O)NCCn1nc(-c2ccc(Oc3ccccc3)cc2)c(C(N)=O)c1N")
"> 7.00"
>>> result_value("COc1cc(F)cc2c1OCCNC(=O)c1cnn3ccc(nc13)N[C@@H]2C")
6.35
>>> result_value("C=CC(=O)N1CCc2c(cccc2-c2c(F)cc(C(N)=O)c3[nH]c4c(c23)CC2(CC4)CC2)C1")
"> 8.00"
>>> result_value("C=CC(=O)N[C@H]1CC[C@@H](Nc2nc(Nc3cnn(C)c3)nc3ccsc23)CC1")
"≥ 7.30"
>>> result_value("CC(C)OC1CN(C(=O)NCc2ccc(-c3ccnc(Nc4cnn(CCO)c4)n3)cc2C(F)(F)F)C1")
"> 8.00"
>>> result_value("O=C(NC1CCCCN(c2ncnc3[nH]ncc23)C1)[C@H](Nc1cc(Cl)cc(Cl)c1)C1CC1 (stereo partly shown)")
"> 7.00"
>>> result_value("O=C(CNCC1CCCCC1)NC1CCCN(c2ncnc3[nH]ccc23)C1 (stereo not shown)")
"< 5.00"
>>> result_value("C=CC(=O)N1CC[C@]2(C1)C[C@H](n1c(NC(=O)c3ccc(-c4cc[nH]c(=O)c4)s3)nc3cc(CO)ccc31)C2")
9.08
>>> result_value("C=CC(=O)N1CCC(C2CCn3c2nc(-c2ccc(Oc4ccccc4)c(OC)c2)c3C(N)=O)CC1 (stereo not shown)")
7.97
